Tested on: NCI-H2228
Assay: relative viability (nuclei count vs DMSO), 5 days (fraction); higher = more cells survive
Settings: first compound 15.81 µM
As shown below, each of these compounds has a reported relative viability value.
OBSERVED PROPERTY: relative viability

[[record]]
compound = "O=C(O)CCCCC(CCSCc1ccccc1)SCc1ccccc1 (stereo not drawn) [CPI-613] + Cc1cc(Nc2cc(N3CCN(C)CC3)nc(Sc3ccc(NC(=O)C4CC4)cc3)n2)n[nH]1 [Tozasertib] (partner 0.1 µM)"
recorded_number = 0.204

[[record]]
compound = "O=C(O)CCCCC(CCSCc1ccccc1)SCc1ccccc1 (stereo not drawn) [CPI-613] + O=C(c1cc(Cc2n[nH]c(=O)c3ccccc23)ccc1F)N1CCN(C(=O)C2CC2)CC1 [Olaparib] (partner 8 µM)"
recorded_number = 0.411

[[record]]
compound = "O=C(O)CCCCC(CCSCc1ccccc1)SCc1ccccc1 (stereo not drawn) [CPI-613] + C[C@@H](Oc1cc(-c2cnn(C3CCNCC3)c2)cnc1N)c1c(Cl)ccc(F)c1Cl [Crizotinib] (partner 1 µM)"
recorded_number = 0.481


---

Tested on: A-427
Assay: relative viability (nuclei count vs DMSO), 5 days (fraction); higher = more cells survive
Conditions: first compound 0.002 µM
OBSERVED PROPERTY: relative viability

[[record]]
compound = "CC(=O)O[C@@]12CO[C@@H]1C[C@H](O)[C@@]1(C)C(=O)[C@H](O)C3=C(C)[C@@H](OC(=O)[C@H](O)[C@@H](NC(=O)OC(C)(C)C)c4ccccc4)C[C@@](O)([C@@H](OC(=O)c4ccccc4)[C@H]21)C3(C)C [Docetaxel] + CC(=O)c1c(C)c2cnc(Nc3ccc(N4CCNCC4)cn3)nc2n(C2CCCC2)c1=O [Palbociclib] (partner 0.5 µM)"
observed_property = "relative viability"
recorded_number = 0.507

[[record]]
compound = "CC(=O)O[C@@]12CO[C@@H]1C[C@H](O)[C@@]1(C)C(=O)[C@H](O)C3=C(C)[C@@H](OC(=O)[C@H](O)[C@@H](NC(=O)OC(C)(C)C)c4ccccc4)C[C@@](O)([C@@H](OC(=O)c4ccccc4)[C@H]21)C3(C)C [Docetaxel] + CC(=O)Nc1cccc(-n2c(=O)n(C3CC3)c(=O)c3c(Nc4ccc(I)cc4F)n(C)c(=O)c(C)c32)c1 [Trametinib] (partner 0.02 µM)"
observed_property = "relative viability"
recorded_number = 0.552

[[record]]
compound = "CC(=O)O[C@@]12CO[C@@H]1C[C@H](O)[C@@]1(C)C(=O)[C@H](O)C3=C(C)[C@@H](OC(=O)[C@H](O)[C@@H](NC(=O)OC(C)(C)C)c4ccccc4)C[C@@](O)([C@@H](OC(=O)c4ccccc4)[C@H]21)C3(C)C [Docetaxel] + CS(=O)(=O)N1CCN(Cc2cc3nc(-c4cccc5[nH]ncc45)nc(N4CCOCC4)c3s2)CC1 [Pictilisib] (partner 1 µM)"
observed_property = "relative viability"
recorded_number = 0.488


---

System: HCC-78
Test: relative viability (nuclei count vs DMSO), 5 days (fraction); higher = more cells survive
Details: first compound 0.8 µM
OBSERVED PROPERTY: relative viability

[[record]]
molecule = "Cc1cnc(-c2cnc(NCCNc3ccc(C#N)cn3)nc2-c2ccc(Cl)cc2Cl)[nH]1 + COc1cccc2cc(-c3nc([C@H]4CC[C@H](C(=O)O)CC4)n4ncnc(N)c34)[nH]c12 [OSI-027] (partner 0.5 µM)"
recorded_number = 0.366

[[record]]
molecule = "Cc1cnc(-c2cnc(NCCNc3ccc(C#N)cn3)nc2-c2ccc(Cl)cc2Cl)[nH]1 + Cc1cc(Nc2cc(N3CCN(C)CC3)nc(Sc3ccc(NC(=O)C4CC4)cc3)n2)n[nH]1 [Tozasertib] (partner 0.1 µM)"
recorded_number = 0.428

[[record]]
molecule = "O=c1[nH]c2ccccc2n1C1CCN(CCCC(c2ccc(F)cc2)c2ccc(F)cc2)CC1 [Pimozide] + NC(=O)Nc1cc(-c2cccc(F)c2)sc1C(=O)N[C@H]1CCCNC1 [AZD7762] (partner 0.2 µM)"
recorded_number = 0.607

[[record]]
molecule = "O=c1[nH]c2ccccc2n1C1CCN(CCCC(c2ccc(F)cc2)c2ccc(F)cc2)CC1 [Pimozide] + CS(=O)(=O)N1CCN(Cc2cc3nc(-c4cccc5[nH]ncc45)nc(N4CCOCC4)c3s2)CC1 [Pictilisib] (partner 1 µM)"
recorded_number = 0.187

